- assayed_target: N-type Ca2+ channel (Homo sapiens)
- Construct: host or cells: IMR-32 cells, differentiated with dibutyryl cAMP and bromodeoxyuridine
- assay_text: Measurement of N-type Ca2+ channel blocking potencies in IMR-32 cells using the fluorescent Ca2+ indicator Indo-1
- Format: cell-based
- condition_notes: 1 μM compound, 5 μM nitrendipine, read-out: IMR 32 % of Blockade @ 1 μM
Where inhibition at 1 µM equals or exceeds 50%, the correct label is true; where it does not, the label is false.

{"columns": ["molecule", "discrete_label"],
 "data": [
  ["CC(C)CCN(C)[C@@H](CC(C)C)C(=O)NC(C)(C)CN(c1ccc(OCc2ccccc2)cc1)C1C=CCCC1 (stereo partly shown)", "true"],
  ["CCC(C)[C@H](N)C(=O)N1CCC(N(CC=C(C)C)c2ccc(OCc3ccccc3)cc2)CC1 (stereo partly shown)", "false"],
  ["CC(C)C[C@H](NC(=O)N1CCCCCC1)C(=O)NC(C)(C)CN(c1ccc(OCc2ccccc2)cc1)C1C=CCCC1 (stereo partly shown)", "true"],
  ["CC(C)CCN(c1ccc(NC(=O)OCc2ccccc2)cc1)C1CCN(C(=O)[C@H](CC(C)C)NC(=O)N2CCCCCC2)CC1", "true"],
  ["CC(C)=CCN(c1ccc(OCc2ccccc2)cc1)C1CCCN(C(=O)[C@H](CC(C)C)NC(=O)N2CCCCCC2)C1 (mixture of isomers)", "false"],
  ["CC(C)=CCN(CC(C)(C)NC(=O)[C@H](CC(C)C)N(C)CC=C(C)C)c1ccc(OCc2ccccc2)cc1", "true"],
  ["CC(C)=CCN(c1ccc(OCc2ccccc2)cc1)C1CCCN(C(=O)[C@@H](N)CC(C)C)C1 (mixture of isomers)", "false"],
  ["CC(C)=CCN(c1ccc(OCc2ccccc2)cc1)C1CCN(C(=O)[C@H](N)CC(C)C)CC1", "false"],
  ["CC(C)=CCN(c1ccc(OCc2ccccc2)cc1)C1CCN(C[C@@H](N)CC(C)C)CC1", "false"]
]}

###

Measured IC50 by item
- assayed_target: N-type Ca2+ channel (Homo sapiens, UniProt Q00975)
- Sequence (Q00975 whole entry): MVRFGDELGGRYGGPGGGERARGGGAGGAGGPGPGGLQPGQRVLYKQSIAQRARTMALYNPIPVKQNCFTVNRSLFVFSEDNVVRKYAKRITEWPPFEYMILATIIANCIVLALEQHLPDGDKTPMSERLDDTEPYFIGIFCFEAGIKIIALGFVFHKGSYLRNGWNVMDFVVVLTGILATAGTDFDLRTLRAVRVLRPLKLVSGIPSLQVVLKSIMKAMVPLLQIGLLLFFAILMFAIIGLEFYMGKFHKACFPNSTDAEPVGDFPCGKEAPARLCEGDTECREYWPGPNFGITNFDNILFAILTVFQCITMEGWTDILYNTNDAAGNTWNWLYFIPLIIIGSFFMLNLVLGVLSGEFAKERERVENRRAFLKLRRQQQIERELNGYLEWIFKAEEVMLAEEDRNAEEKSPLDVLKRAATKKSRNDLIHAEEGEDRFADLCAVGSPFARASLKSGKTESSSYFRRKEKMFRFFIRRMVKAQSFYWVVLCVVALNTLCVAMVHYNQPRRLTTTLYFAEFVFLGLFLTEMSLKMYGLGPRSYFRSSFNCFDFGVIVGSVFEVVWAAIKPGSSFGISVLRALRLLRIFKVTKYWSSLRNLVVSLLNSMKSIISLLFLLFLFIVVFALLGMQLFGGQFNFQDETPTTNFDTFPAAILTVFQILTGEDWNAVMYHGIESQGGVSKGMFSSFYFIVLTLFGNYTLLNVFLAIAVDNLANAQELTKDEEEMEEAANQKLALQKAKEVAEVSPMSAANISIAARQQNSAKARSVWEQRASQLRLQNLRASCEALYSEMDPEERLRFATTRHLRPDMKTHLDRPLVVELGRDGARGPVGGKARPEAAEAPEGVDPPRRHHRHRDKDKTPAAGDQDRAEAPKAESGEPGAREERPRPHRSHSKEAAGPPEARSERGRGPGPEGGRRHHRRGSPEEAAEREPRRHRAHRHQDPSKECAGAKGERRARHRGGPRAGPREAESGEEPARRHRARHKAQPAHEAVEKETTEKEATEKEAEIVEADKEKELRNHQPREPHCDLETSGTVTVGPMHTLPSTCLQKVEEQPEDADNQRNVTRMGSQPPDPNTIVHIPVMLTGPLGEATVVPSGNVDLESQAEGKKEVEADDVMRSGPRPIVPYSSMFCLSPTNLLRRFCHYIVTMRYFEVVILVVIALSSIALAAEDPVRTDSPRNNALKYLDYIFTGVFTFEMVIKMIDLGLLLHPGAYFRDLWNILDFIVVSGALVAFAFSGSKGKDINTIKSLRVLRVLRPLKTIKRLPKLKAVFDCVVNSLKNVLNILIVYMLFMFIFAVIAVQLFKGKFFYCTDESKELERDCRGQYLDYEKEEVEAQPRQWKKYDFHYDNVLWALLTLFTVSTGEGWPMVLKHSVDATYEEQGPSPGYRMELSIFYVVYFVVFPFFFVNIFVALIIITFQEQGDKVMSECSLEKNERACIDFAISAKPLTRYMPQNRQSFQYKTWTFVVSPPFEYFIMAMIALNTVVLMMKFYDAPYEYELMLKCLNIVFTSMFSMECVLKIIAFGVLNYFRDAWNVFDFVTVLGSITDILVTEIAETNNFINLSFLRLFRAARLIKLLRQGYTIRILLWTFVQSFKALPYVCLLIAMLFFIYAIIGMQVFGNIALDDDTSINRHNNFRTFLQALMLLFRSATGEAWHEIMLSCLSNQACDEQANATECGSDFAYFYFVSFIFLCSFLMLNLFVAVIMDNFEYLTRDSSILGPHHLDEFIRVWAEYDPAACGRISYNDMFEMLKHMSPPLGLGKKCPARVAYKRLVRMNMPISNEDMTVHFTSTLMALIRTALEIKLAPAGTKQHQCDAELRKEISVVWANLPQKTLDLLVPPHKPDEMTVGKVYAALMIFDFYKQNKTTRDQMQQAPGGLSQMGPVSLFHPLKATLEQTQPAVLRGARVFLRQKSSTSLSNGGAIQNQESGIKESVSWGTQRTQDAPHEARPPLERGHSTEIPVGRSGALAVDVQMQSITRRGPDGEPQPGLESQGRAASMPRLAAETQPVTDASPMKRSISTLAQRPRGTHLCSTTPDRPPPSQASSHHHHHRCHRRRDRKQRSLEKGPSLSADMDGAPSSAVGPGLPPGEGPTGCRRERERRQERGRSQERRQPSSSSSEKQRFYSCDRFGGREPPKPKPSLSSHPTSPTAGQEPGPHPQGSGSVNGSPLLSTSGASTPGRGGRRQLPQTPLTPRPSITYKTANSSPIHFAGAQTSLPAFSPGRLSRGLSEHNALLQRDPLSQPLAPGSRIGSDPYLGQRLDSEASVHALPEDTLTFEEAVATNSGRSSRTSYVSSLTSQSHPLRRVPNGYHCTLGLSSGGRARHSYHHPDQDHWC
- Sequence (P54289 25-956 partner limits assumed): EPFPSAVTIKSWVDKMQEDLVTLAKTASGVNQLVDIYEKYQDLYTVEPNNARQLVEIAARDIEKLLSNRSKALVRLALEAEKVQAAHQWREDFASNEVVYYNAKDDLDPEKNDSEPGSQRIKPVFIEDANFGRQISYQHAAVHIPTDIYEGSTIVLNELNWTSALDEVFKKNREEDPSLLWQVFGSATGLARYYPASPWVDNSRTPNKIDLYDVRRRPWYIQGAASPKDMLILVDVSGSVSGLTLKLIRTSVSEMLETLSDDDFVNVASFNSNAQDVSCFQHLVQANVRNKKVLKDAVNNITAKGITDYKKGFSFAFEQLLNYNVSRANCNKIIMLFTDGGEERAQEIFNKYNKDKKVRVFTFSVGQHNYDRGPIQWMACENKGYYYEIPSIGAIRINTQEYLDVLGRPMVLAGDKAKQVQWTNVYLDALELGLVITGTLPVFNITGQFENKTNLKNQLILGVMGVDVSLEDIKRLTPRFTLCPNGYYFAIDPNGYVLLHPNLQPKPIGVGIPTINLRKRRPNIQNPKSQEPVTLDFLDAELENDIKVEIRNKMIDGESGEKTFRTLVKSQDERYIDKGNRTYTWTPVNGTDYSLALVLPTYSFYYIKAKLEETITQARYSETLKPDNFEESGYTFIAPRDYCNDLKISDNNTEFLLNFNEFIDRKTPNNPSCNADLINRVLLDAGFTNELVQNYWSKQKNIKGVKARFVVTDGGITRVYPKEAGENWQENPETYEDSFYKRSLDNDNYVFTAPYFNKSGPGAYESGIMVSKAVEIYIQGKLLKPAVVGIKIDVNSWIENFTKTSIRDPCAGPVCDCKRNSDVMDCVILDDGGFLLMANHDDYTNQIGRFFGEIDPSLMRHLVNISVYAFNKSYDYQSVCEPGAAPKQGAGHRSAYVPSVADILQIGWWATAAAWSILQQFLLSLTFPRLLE
- Sequence (P54289 957-1103 partner limits assumed): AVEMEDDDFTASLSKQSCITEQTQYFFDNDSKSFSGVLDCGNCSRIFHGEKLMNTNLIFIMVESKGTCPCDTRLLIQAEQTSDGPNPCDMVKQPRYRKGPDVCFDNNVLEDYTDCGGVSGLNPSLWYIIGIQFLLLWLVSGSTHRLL
- Sequence (Q02641 whole entry partner): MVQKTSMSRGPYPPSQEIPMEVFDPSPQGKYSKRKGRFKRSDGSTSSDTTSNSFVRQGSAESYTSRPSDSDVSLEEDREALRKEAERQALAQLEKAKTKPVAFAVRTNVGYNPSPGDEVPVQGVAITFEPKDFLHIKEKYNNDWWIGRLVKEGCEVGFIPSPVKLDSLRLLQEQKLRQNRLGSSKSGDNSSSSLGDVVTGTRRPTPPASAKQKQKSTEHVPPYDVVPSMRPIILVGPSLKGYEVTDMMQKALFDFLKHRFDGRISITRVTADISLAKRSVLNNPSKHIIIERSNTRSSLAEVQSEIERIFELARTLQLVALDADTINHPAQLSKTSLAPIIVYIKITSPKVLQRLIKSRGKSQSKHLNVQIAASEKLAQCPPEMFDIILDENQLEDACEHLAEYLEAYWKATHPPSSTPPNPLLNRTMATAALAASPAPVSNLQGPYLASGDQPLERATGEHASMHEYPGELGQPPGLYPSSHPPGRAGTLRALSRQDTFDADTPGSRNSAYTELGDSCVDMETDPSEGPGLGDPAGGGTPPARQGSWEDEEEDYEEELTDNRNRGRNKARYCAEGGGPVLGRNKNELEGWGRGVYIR
- assay_text: Measurement of N-type Ca2+ channel blocking potencies in IMR-32 cells using the fluorescent Ca2+ indicator Indo-1
- condition_notes: K+-stimulated Ca2+ flux, 5 μM nitrendipine to block L-type channels
Structures can show the parent of a compound that is named as a salt.

{"columns": ["compound", "IC50 (µM)"],
 "data": [
  ["CC(C)C[C@H](NC(=O)N1CCCCCC1)C(=O)N1CCC(N(Cc2ccccc2)c2ccc(OCc3ccccc3)cc2)CC1", 0.43],
  ["CC(C)=CCN(c1ccc(OCc2ccccc2)cc1)C1CCN(C(=O)[C@H](CC(C)C)NC(=O)N2CCCCCC2)CC1 [Example 5, hydrochloride salt]", 0.5],
  ["CC(C)CCN(c1ccc(NCCC(C)(C)C)cc1)C1CCN(C(=O)[C@H](CC(C)C)NC(=O)N2CCCCCC2)CC1", 0.18],
  ["CC(C)C[C@H](NC(=O)N1CCCCCC1)C(=O)NCCN(Cc1ccccc1)c1ccc(OCc2ccccc2)cc1", 1.9]
]}

###

- assayed_target: N-type Ca2+ channel (Homo sapiens)
- Construct: host or cells: IMR-32 cells, differentiated with dibutyryl cAMP and bromodeoxyuridine
- assay_text: Measurement of N-type Ca2+ channel blocking potencies in IMR-32 cells using the fluorescent Ca2+ indicator Indo-1
- Format: cell-based
- condition_notes: 10 μM compound, 5 μM nitrendipine
# IMR 32 % of Blockade @ 10 μM per record follows
measurement_name: IMR 32 % of Blockade @ 10 μM (%)

{"columns": ["compound", "assayed_target", "measurement_name", "uom", "readout_value"],
 "data": [
  ["CC(C)=CCN(C[C@H](C)NC(=O)[C@H](CC(C)C)NCCC(C)C)c1ccc(OCc2ccccc2)cc1 (relative stereo)", "N-type Ca2+ channel (Homo sapiens)", "IMR 32 % of Blockade @ 10 μM", "%", 86],
  ["CC(C)=CCN(CC(C)(C)NC(=O)[C@H](CC(C)C)N(C)CCC(C)C)c1ccc(OCc2ccccc2)cc1", "N-type Ca2+ channel (Homo sapiens)", "IMR 32 % of Blockade @ 10 μM", "%", 91],
  ["CC(C)=CCN(C[C@H](C)NC(=O)[C@H](CC(C)C)N(C)C)c1ccc(OCc2ccccc2)cc1 (relative stereo)", "N-type Ca2+ channel (Homo sapiens)", "IMR 32 % of Blockade @ 10 μM", "%", 86],
  ["CC(C)=CCN(C[C@H](C)NC(=O)[C@H](CC(C)C)N(CC=C(C)C)CC=C(C)C)c1ccc(OCc2ccccc2)cc1 (relative stereo)", "N-type Ca2+ channel (Homo sapiens)", "IMR 32 % of Blockade @ 10 μM", "%", 70],
  ["CC(C)=CCN(C[C@H](C)NC(=O)[C@H](CC(C)C)N(CCC(C)C)CCC(C)C)c1ccc(OCc2ccccc2)cc1 (relative stereo)", "N-type Ca2+ channel (Homo sapiens)", "IMR 32 % of Blockade @ 10 μM", "%", 71]
]}

###

- assayed_target: N-type Ca2+ channel (Homo sapiens)
- Construct: host or cells: IMR-32 cells, differentiated with dibutyryl cAMP and bromodeoxyuridine
- assay_text: Measurement of N-type Ca2+ channel blocking potencies in IMR-32 cells using the fluorescent Ca2+ indicator Indo-1
- Format: cell-based
- condition_notes: K+-stimulated Ca2+ flux, 5 μM nitrendipine to block L-type channels
// NB: equality with 700 nM counts as N; only IC50 strictly below is Y

{"columns": ["molecule", "discrete_label"],
 "data": [
  ["CC(C)C[C@H](NC(=O)N1CCCCCC1)C(=O)NCCN(c1ccc(OCc2ccccc2)cc1)C1C=CCCC1 (some centres unmarked)", "N"],
  ["CC(C)=CCN(CC(C)(C)NC(=O)[C@H](CC(C)C)NC(=O)N1CCCCCC1)c1ccc(OCc2ccccc2)cc1", "Y"],
  ["CC(C)C[C@H](NC(=O)N1CCCCCC1)C(=O)N1CCC(Nc2ccc(OCc3ccccc3)cc2)CC1", "N"],
  ["CC(C)CCN(c1ccc(NCc2ccccn2)cc1)C1CCN(C(=O)[C@H](CC(C)C)NC(=O)N2CCCCCC2)CC1", "N"],
  ["CC(C)CCN(c1ccc(N)cc1)C1CCN(C(=O)[C@H](CC(C)C)NC(=O)N2CCCCCC2)CC1", "N"],
  ["CC(C)=CCN(c1ccc(OCc2ccccc2)cc1)C1CCN(C(=O)[C@H](CC(C)C)NCc2ccc[nH]2)CC1", "Y"],
  ["CC(C)=CCN(CC(C)(C)NC(=O)[C@H](CC(C)C)N(C)C)c1ccc(OCc2ccccc2)cc1", "N"],
  ["CC(C)CCN(c1ccc(NCCC(C)O)cc1)C1CCN(C(=O)[C@H](CC(C)C)NC(=O)N2CCCCCC2)CC1 (some centres unmarked)", "N"],
  ["CC(C)=CCN(CC(C)(C)NC(=O)[C@H](CC(C)C)N(C)C1C=CCCC1)c1ccc(OCc2ccccc2)cc1 (some centres unmarked)", "Y"],
  ["CC(C)CCN(c1ccc(NCC2CCCCC2)cc1)C1CCN(C(=O)[C@H](CC(C)C)NC(=O)N2CCCCCC2)CC1", "Y"],
  ["CC(C)CCN(c1ccc(NCc2ccccc2)cc1)C1CCN(C(=O)[C@H](CC(C)C)NC(=O)N2CCCCCC2)CC1", "Y"],
  ["CC(C)=CCN(c1ccc(OCc2ccccc2)cc1)C1CCN(C(=O)[C@H](CC(C)C)NC2CCCCC2)CC1", "Y"]
]}

###

Structures can show the parent of a compound that is named as a salt.
Quick list: melting point per entry.

{"columns": ["compound", "melting point"],
 "data": [
  ["CC(C)=CCN(c1ccc(OCc2ccccc2)cc1)C1CCN(C(=O)[C@H](CC(C)C)NC(=O)N2CCCCCC2)CC1 (as salt: hydrochloride) [Example 5]", "125 to 126 °C"],
  ["CC(C)=CCN(CCCNC(=O)[C@H](CC(C)C)NC(=O)N1CCCCCC1)c1ccc(OCc2ccccc2)cc1 [Example 4]", "48 to 52 °C"],
  ["CC(C)C[C@H](NC(=O)N1CCCCCC1)C(=O)NCCN(Cc1ccccc1)c1ccc(OCc2ccccc2)cc1 [Example 7]", "65 to 66 °C"],
  ["CC(C)C[C@H](NC(=O)N1CCCCCC1)C(=O)NCCN(c1ccc(OCc2ccccc2)cc1)C1C=CCCC1 (some centres unmarked) [Example 6]", "79 to 80 °C"],
  ["CC(C)=CCN(CCNC(=O)[C@H](CC(C)C)NC(=O)N1CCCCCC1)c1ccc(OCc2ccccc2)cc1 [Example 3]", "71 °C"]
]}

###

Listed here: items and their measured IMR 32 % of Blockade @ 1 μM.
- assayed_target: N-type Ca2+ channel (Homo sapiens, UniProt Q00975)
- Construct: host or cells: IMR-32 cells, differentiated with dibutyryl cAMP and bromodeoxyuridine
- assay_text: Measurement of N-type Ca2+ channel blocking potencies in IMR-32 cells using the fluorescent Ca2+ indicator Indo-1
- Type: cell-based
- condition_notes: 1 μM compound, 5 μM nitrendipine
- Protocol: Measurement of N-type Ca^2+ Channel Blocking Potencies of Compounds in IMR-32 Cells Using the Fluorescent Ca^2+Indicator Indo-1 IMR-32 cells are a human tumoral cell line of neural origin. […] Calcium flux into these cells may be induced by stimulation with elevated potassium concentrations. The L-channel component of calcium flux may be blocked by adding 5 μM nitrendipine. […] Intracellular calcium concentrations are measured using the fluorescent calcium indicator Indo-1. […]
measurement_name: IMR 32 % of Blockade @ 1 μM

{"columns": ["compound", "measurement_name", "readout_value"],
 "data": [
  ["CC(C)=CCN(C[C@H](C)NC(=O)[C@H](CC(C)C)N(CCC(C)C)CCC(C)C)c1ccc(OCc2ccccc2)cc1 (relative stereo)", "IMR 32 % of Blockade @ 1 μM", "67%"],
  ["CC(C)=CCN(C[C@H](C)NC(=O)[C@H](CC(C)C)NCCC(C)C)c1ccc(OCc2ccccc2)cc1 (relative stereo)", "IMR 32 % of Blockade @ 1 μM", "36%"],
  ["CC(C)=CCN(C[C@H](C)NC(=O)[C@H](CC(C)C)NC(=O)N1CCCCCC1)c1ccc(OCc2ccccc2)cc1 (relative stereo)", "IMR 32 % of Blockade @ 1 μM", "50% @ 1"],
  ["CC(C)=CCN(C[C@H](C)NC(=O)[C@H](CC(C)C)N(CC=C(C)C)CC=C(C)C)c1ccc(OCc2ccccc2)cc1 (relative stereo)", "IMR 32 % of Blockade @ 1 μM", "74%"],
  ["CC(C)=CCN(CC(C)(C)NC(=O)[C@H](CC(C)C)N(C)CCC(C)C)c1ccc(OCc2ccccc2)cc1", "IMR 32 % of Blockade @ 1 μM", "49%"],
  ["CC(C)=CCN(C[C@H](C)NC(=O)[C@H](CC(C)C)N(C)C)c1ccc(OCc2ccccc2)cc1 (relative stereo)", "IMR 32 % of Blockade @ 1 μM", "36%"]
]}
